# system-under-test: Fes (UniProt P07332)
# Sequence (P07332 whole entry, looked up): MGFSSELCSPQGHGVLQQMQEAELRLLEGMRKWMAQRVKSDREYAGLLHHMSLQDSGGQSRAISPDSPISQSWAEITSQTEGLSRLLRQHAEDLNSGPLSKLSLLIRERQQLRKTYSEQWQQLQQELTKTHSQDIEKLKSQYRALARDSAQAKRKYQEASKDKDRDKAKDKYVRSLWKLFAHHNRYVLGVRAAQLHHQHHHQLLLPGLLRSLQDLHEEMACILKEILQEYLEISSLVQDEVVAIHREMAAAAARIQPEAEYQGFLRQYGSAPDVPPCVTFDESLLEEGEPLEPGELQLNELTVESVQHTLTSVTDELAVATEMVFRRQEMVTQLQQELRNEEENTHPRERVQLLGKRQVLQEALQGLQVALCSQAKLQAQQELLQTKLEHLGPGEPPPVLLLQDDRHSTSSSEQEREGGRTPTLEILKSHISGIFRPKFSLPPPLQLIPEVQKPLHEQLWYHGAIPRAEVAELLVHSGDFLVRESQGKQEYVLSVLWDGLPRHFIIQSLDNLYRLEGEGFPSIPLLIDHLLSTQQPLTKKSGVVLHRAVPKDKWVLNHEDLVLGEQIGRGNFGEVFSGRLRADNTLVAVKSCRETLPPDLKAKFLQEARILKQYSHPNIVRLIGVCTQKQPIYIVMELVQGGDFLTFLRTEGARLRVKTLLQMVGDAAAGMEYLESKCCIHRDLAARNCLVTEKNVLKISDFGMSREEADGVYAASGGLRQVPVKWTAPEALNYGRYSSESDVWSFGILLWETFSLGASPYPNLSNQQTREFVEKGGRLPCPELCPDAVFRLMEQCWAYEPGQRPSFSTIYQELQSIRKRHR
# experimental-protocol: phosphorylation enrichment, bacterial display (enrichment ratio); higher = better substrate or ligand; peptides without Tyr show the background;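 further: 11-residue human phosphosite peptides and single-mutation variants displayed on the E. coli surface, counted by deep sequencing, each peptide's frequency after selection divided by its frequency in the unselected input library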;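 further: frequency after pTyr selection over input frequency; kinase dosed for 20-30% of maximal phosphorylation in three min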
Use 1.0 when the recorded phosphorylation enrichment is no lower than 0.8; use 0.0 when it is lower.

Exercise: In plain terms: is recorded phosphorylation enrichment at least 0.8 for FVPSFYHAFSG [ACTN4_Y265_S262P_YF] ?
Key: 1.0

Exercise: In plain terms: is recorded phosphorylation enrichment at least 0.8 for IIQRAYRRHLL [SCN1A_Y1926] ?
Key: 0.0

Exercise: In plain terms: is recorded phosphorylation enrichment at least 0.8 for RLNCIYYKDQT [RS1_Y165_W163C] ?
Key: 1.0

Exercise: In plain terms: is recorded phosphorylation enrichment at least 0.8 for GSRGKYFSGFR [ATM_Y332_S333F] ?
Key: 0.0

Exercise: In plain terms: is recorded phosphorylation enrichment at least 0.8 for NTVLGYFIGRI [GARS1_Y408] ?
Key: 1.0

Exercise: In plain terms: is recorded phosphorylation enrichment at least 0.8 for DIPIRYSIMGV [CDH4_Y205_T208M] ?
Key: 1.0

Exercise: In plain terms: is recorded phosphorylation enrichment at least 0.8 for ADMETYLLEKS [MYH7_Y266_I263M] ?
Key: 1.0

Exercise: In plain terms: is recorded phosphorylation enrichment at least 0.8 for PRIKTYMRPSP [TDP1_Y497_H493R] ?
Key: 0.0

Exercise: In plain terms: is recorded phosphorylation enrichment at least 0.8 for SIVEDYRPPFF [ACVRL1_Y421_G416S_YF] ?
Key: 1.0

Exercise: In plain terms: is recorded phosphorylation enrichment at least 0.8 for KASIMYPSSNC [CXCL11_Y52_N55S] ?
Key: 0.0

Exercise: In plain terms: is recorded phosphorylation enrichment at least 0.8 for ADGLEYSRTGL [MMUT_Y287] ?
Key: 1.0

Exercise: In plain terms: is recorded phosphorylation enrichment at least 0.8 for KPRKLYTIKKP [BRD2_Y715_P714L] ?
Key: 0.0

Exercise: In plain terms: is recorded phosphorylation enrichment at least 0.8 for YVKEPYIQSRF [HIPK4_Y175] ?
Key: 0.0

Exercise: In plain terms: is recorded phosphorylation enrichment at least 0.8 for DFSLKYPTDIP [APC_Y1183_A1184P_YF] ?
Key: 1.0

Exercise: In plain terms: is recorded phosphorylation enrichment at least 0.8 for NGLVAYKDGKL [PMM2_Y76] ?
Key: 0.0

Exercise: In plain terms: is recorded phosphorylation enrichment at least 0.8 for FKWAVYCIIGR [NUP93_Y391_R388W_YF] ?
Key: 1.0

Exercise: In plain terms: is recorded phosphorylation enrichment at least 0.8 for RHSGSYFVTSV [APC_Y2838_L2839F] ?
Key: 1.0

Exercise: In plain terms: is recorded phosphorylation enrichment at least 0.8 for GGFTWYCDGKK [PROS1_Y266_C265W_YF] ?
Key: 1.0

Exercise: In plain terms: is recorded phosphorylation enrichment at least 0.8 for CTLLPYYSARV [DGKE_Y269] ?
Key: 1.0

Exercise: In plain terms: is recorded phosphorylation enrichment at least 0.8 for KGIQLYDTPYE [SHB_Y297] ?
Key: 1.0

Exercise: In plain terms: is recorded phosphorylation enrichment at least 0.8 for ICGVSYDEYRY [CFTR_Y512_F508C] ?
Key: 1.0

Exercise: In plain terms: is recorded phosphorylation enrichment at least 0.8 for ETSHNYHKFDS [MATR3_Y243] ?
Key: 0.0

Exercise: In plain terms: is recorded phosphorylation enrichment at least 0.8 for KSVEEYANCHL [TF_Y593_P589S] ?
Key: 1.0

Exercise: In plain terms: is recorded phosphorylation enrichment at least 0.8 for SQQTFYPVSNM [ABCD1_Y181_R182P_YF] ?
Key: 0.0

Exercise: In plain terms: is recorded phosphorylation enrichment at least 0.8 for GKTQQYECKWF [BCR_Y751_D752E_YF] ?
Key: 1.0

Exercise: In plain terms: is recorded phosphorylation enrichment at least 0.8 for ADRNHYRRFRR [YBX1_Y145_P149R_YF] ?
Key: 0.0

Exercise: In plain terms: is recorded phosphorylation enrichment at least 0.8 for ASNFNYFFHRE [KCNA1_Y413_V408A_YF] ?
Key: 1.0

Exercise: In plain terms: is recorded phosphorylation enrichment at least 0.8 for QGIFGYHHFMQ [UFSP2_Y287_YF] ?
Key: 1.0

Exercise: In plain terms: is recorded phosphorylation enrichment at least 0.8 for GGDVIYKGFED [NFU1_Y194] ?
Key: 1.0

Exercise: In plain terms: is recorded phosphorylation enrichment at least 0.8 for ADDSYYTARSA [ZAP70_Y493] ?
Key: 0.0

Exercise: In plain terms: is recorded phosphorylation enrichment at least 0.8 for TGGLEYIVPLM [CLCN4_Y548] ?
Key: 1.0

Exercise: In plain terms: is recorded phosphorylation enrichment at least 0.8 for LFPANYVAPMT [GRAP2_Y324] ?
Key: 1.0

Exercise: In plain terms: is recorded phosphorylation enrichment at least 0.8 for SREDIYKRNTE [PDE4DIP_Y45_I49T] ?
Key: 1.0

Exercise: In plain terms: is recorded phosphorylation enrichment at least 0.8 for SRNSKYNAEST [PSEN1_Y315_K311R] ?
Key: 0.0

Exercise: In plain terms: is recorded phosphorylation enrichment at least 0.8 for HIAKGYRRDNP [HARS1_Y156_V155G] ?
Key: 0.0

Exercise: In plain terms: is recorded phosphorylation enrichment at least 0.8 for MSSLFYANALF [HOXB7_Y6_T9A_YF] ?
Key: 1.0

Exercise: In plain terms: is recorded phosphorylation enrichment at least 0.8 for KHCEDYVCSFN [DSC1_Y846_YF] ?
Key: 1.0

Exercise: In plain terms: is recorded phosphorylation enrichment at least 0.8 for HFVDEYDQTIE [KRAS_Y32_P34Q] ?
Key: 1.0

Exercise: In plain terms: is recorded phosphorylation enrichment at least 0.8 for RNYGTYTAGLS [RHBDD1_Y264_D262G] ?
Key: 0.0

Exercise: In plain terms: is recorded phosphorylation enrichment at least 0.8 for PVDVAYRHGFF [PLEC_Y2967_R2969H_YF] ?
Key: 1.0

Exercise: In plain terms: is recorded phosphorylation enrichment at least 0.8 for MKVPLYETPAG [PGM5_Y358_V357L] ?
Key: 1.0

Exercise: In plain terms: is recorded phosphorylation enrichment at least 0.8 for DAGTDYVGISR [FREM2_Y2061] ?
Key: 0.0

Exercise: In plain terms: is recorded phosphorylation enrichment at least 0.8 for GKPENYRRLDI [VHL_Y175_V170G] ?
Key: 0.0

Exercise: In plain terms: is recorded phosphorylation enrichment at least 0.8 for FDGKEYDPVEA [MAPRE2_Y167_YF] ?
Key: 1.0

Exercise: In plain terms: is recorded phosphorylation enrichment at least 0.8 for DPLLTYRFPPN [LMNA_Y481_K486N] ?
Key: 0.0

Exercise: In plain terms: is recorded phosphorylation enrichment at least 0.8 for MKGEFYRFLAE [YWHAG_Y131_D129E_YF] ?
Key: 1.0

Exercise: In plain terms: is recorded phosphorylation enrichment at least 0.8 for DTLLEYLENPK [CYCS_Y68_M66L] ?
Key: 1.0

Exercise: In plain terms: is recorded phosphorylation enrichment at least 0.8 for GFSDPYVKAFL [SYT3_Y470_S474F] ?
Key: 1.0

Exercise: In plain terms: is recorded phosphorylation enrichment at least 0.8 for AEEKEYHAEEG [EGFR_Y869_G873E] ?
Key: 1.0

Exercise: In plain terms: is recorded phosphorylation enrichment at least 0.8 for RRVLVYGDRGA [QDPR_Y16_G18D] ?
Key: 0.0

Exercise: In plain terms: is recorded phosphorylation enrichment at least 0.8 for EILLSYLRTGF [TGM1_Y365_YF] ?
Key: 1.0

Exercise: In plain terms: is recorded phosphorylation enrichment at least 0.8 for RLGDLYKEEMR [VIM_Y150_E151K] ?
Key: 1.0

Exercise: In plain terms: is recorded phosphorylation enrichment at least 0.8 for EEGEEYGGGGG [TUBA1A_Y451] ?
Key: 1.0
